Attribution: ChEMBL document CHEMBL1201862

# System: U-251
# MEASUREMENT NOTES: NCI tumour cell line growth inhibition, 48 h
Activity calls are given as the source filed them. Rule as the data show it: active = GI50 up to about 1.1 µM and inactive = higher.
Form entry, call: pick from T (active), F (inactive)

input: Which outcome was entered for the molecule CC1(C)C2CCC(CN)(C2)C1O (stereo not given) in this test?
output: F

input: Which outcome was entered for the molecule `O=C(CCCl)NN=C1NCCN1` in this test?
output: F

input: Which outcome was entered for the molecule CCOC(OCC)C(CC)[Se]c1ccccc1 (stereo not given) in this test?
output: F

input: Which outcome was entered for the molecule `O=C1c2cccc3cccc(c23)C(=O)N1CCCN1CCN(CCCN2C(=O)c3cccc4cccc(c34)C2=O)CC1` in this test?
output: F

input: Which outcome was entered for the molecule O=C(OC1CC(n2cc(F)c(=O)[nH]c2=O)OC1CSC(=O)c1ccccc1)c1ccccc1 (stereo not given) in this test?
output: F

input: Which outcome was entered for the molecule `CN(C)C(=S)/N=c1\ssc(=S)n1Cc1cccnc1` in this test?
output: F

input: Which outcome was entered for the molecule `CCCCCC[C@H]([C@H](C)O)n1cnc2c(N)ncnc21` in this test?
output: F

input: Which outcome was entered for the molecule COc1ccc(-c2cc(-c3ccccc3)n(C3OC(COC(C)=O)C(OC(C)=O)C(OC(C)=O)C3OC(C)=O)c(=S)c2C#N)cc1 (stereo not given) in this test?
output: F

input: Which outcome was entered for the molecule `Cc1ccc2c(c1)C/C(=C\c1ccccc1C(=O)O)C2=O` in this test?
output: F

input: Which outcome was entered for the molecule `CC(=O)OCc1c(C)c2ccccc2n1C(C)=O` in this test?
output: F

input: Which outcome was entered for the molecule `O=c1[nH]c2cc(C(F)(F)F)ccc2nc1CBr` in this test?
output: F

input: Which outcome was entered for the molecule `CN(C)C(=O)NCCN1CCCCCc2ccccc21` in this test?
output: F

input: Which outcome was entered for the molecule O=C(O)C1CC(c2ccccc2)=NN1c1ccccc1 (stereo not given) in this test?
output: F

input: Which outcome was entered for the molecule `CC(C)C(=O)Oc1cc2c(=O)oc3c(OC(=O)C(C)C)c(OC(=O)C(C)C)cc4c(=O)oc(c1OC(=O)C(C)C)c2c34` in this test?
output: F

input: Which outcome was entered for the molecule `O=S(=O)(O)c1ccc2c(/N=N/c3cccc4ccccc34)c(O)ccc2c1` in this test?
output: F

input: Which outcome was entered for the molecule C[C@]12Cc3cn[nH]c3C(=O)C1CC[C@@H]1C2CC[C@@]2(C)C1CC[C@@H]2O (stereo not given in full) in this test?
output: F

input: Which outcome was entered for the molecule `O=c1oc2ccccc2cc1/C=N/N1C(=S)N(c2ccccc2)C(=N\c2ccccc2)/C1=N/c1ccccc1` in this test?
output: F

input: Which outcome was entered for the molecule `Cc1c(C=C(C#N)C#N)c(=O)n(C)c(=O)n1C` in this test?
output: F

input: Which outcome was entered for the molecule `CCn1c(-c2ccccc2)nc2c1C(=O)c1ccccc1C2=O` in this test?
output: F

input: Which outcome was entered for the molecule `COc1c(O)c2ccccc2c2cc(O)ccc12` in this test?
output: F

input: Which outcome was entered for the molecule `COc1cc2c(ccc3c4cc(OC)c(OC)cc4c[n+](C)c23)cc1O` in this test?
output: T

input: Which outcome was entered for the molecule COC1CCC(OC)C(C2(C3CC(OC)CCC3OC)OC(=O)c3ccccc32)C1 (stereo not given) in this test?
output: F

input: Which outcome was entered for the molecule COC(=O)[C@@H](Cc1ccccc1)N1O[C@]12CCCC[C@@H]2NC(=O)OC(C)(C)C (stereo not given in full) in this test?
output: F

input: Which outcome was entered for the molecule `Cc1cccc(/C=N/NC(=S)NCCc2ccccn2)n1` in this test?
output: F

input: Which outcome was entered for the molecule `CC(=O)OCCOCNC(=S)N/N=C(\C)c1cnccn1` in this test?
output: F

input: Which outcome was entered for the molecule `COc1ccc(Br)c(N/N=C2\CCCNC2=O)c1` in this test?
output: F

input: Which outcome was entered for the molecule `Clc1ccc(CCNCCNC2(c3cc4ccccc4s3)CCCCC2)cc1Cl` in this test?
output: F

input: Which outcome was entered for the molecule `CSc1nc(O)c(C#N)c(-c2ccc(Cl)cc2)n1` in this test?
output: F

input: Which outcome was entered for the molecule COC(=O)C1=C(C(=O)OC)C2(C)Nc3ccccc3C2=C(c2ccccc2)C1 (stereo not given) in this test?
output: F

input: Which outcome was entered for the molecule O=C1c2ccccc2N(O)C1(c1ccccc1)C1CCCC=C1N1CCOCC1 (stereo not given) in this test?
output: F

input: Which outcome was entered for the molecule `CC(=O)Oc1cc(S(=O)(=O)Nc2n[nH]c(Nc3ccc(C)cc3)n2)c(S)cc1Cl` in this test?
output: F

input: Which outcome was entered for the molecule NC(=S)c1cccc(C2Nc3ccccc3O2)c1 (stereo not given) in this test?
output: F

input: Which outcome was entered for the molecule `COc1ccc(CCn2cncn2)cc1` in this test?
output: F

input: Which outcome was entered for the molecule `Nc1nc(CCC(=O)Nc2cccc(C(F)(F)F)c2)cc(-c2ccc3ccccc3c2)n1` in this test?
output: F

input: Which outcome was entered for the molecule `FC(F)(F)c1nc(-c2ccccc2)oc1Sc1nnc(Sc2oc(-c3ccccc3)nc2C(F)(F)F)s1` in this test?
output: F

input: Which outcome was entered for the molecule COc1cccc(N2N=C3c4ccccc4-n4c(nc5ccccc54)C3C2N)c1 (stereo not given) in this test?
output: F

input: Which outcome was entered for the molecule `CCC(=O)Nc1ccc(/N=N/N(C)C)cc1` in this test?
output: F

input: Which outcome was entered for the molecule `Cc1ccc(-c2nc3cc([N+](=O)[O-])ccc3[nH]2)cc1` in this test?
output: F

input: Which outcome was entered for the molecule `COc1ccc2c(c1)/C(=C\c1c(Cl)nc3sc(C)cn13)C(=O)N2` in this test?
output: F

input: Which outcome was entered for the molecule `CN(C)c1ccc(C2=C([O-])c3cc(-[n+]4ccccc4)ccc3C2=O)cc1` in this test?
output: F
